assay-details: Determination of the hygroscopicity (weight increase in a stability chamber)
Type: physicochemical
assay-conditions: Table 6; time 1 h; 25° C., 65% relative air humidity
value-kind: Mean mass increase (%)
Value expressed in %; do not type the unit.

O=C([O-])CN(CCN(CC(=O)[O-])CC(=O)[O-])CCN(CC(=O)[O-])CC(=O)[O-].[Na+].[Na+].[Na+].[Zn+2] [Amorph Il]    0.56

Query: Look up Mean mass increase: O=C([O-])CN(CCN(CC(=O)[O-])CC(=O)[O-])CCN(CC(=O)[O-])CC(=O)[O-].[Na+].[Na+].[Na+].[Zn+2] [Form I]
Response: 0.32

Query: Look up Mean mass increase: O=C([O-])CN(CCN(CC(=O)[O-])CC(=O)[O-])CCN(CC(=O)[O-])CC(=O)[O-].[Na+].[Na+].[Na+].[Zn+2] [Form II, B]
Response: 0.41

Query: Look up Mean mass increase: O=C([O-])CN(CCN(CC(=O)[O-])CC(=O)[O-])CCN(CC(=O)[O-])CC(=O)[O-].[Na+].[Na+].[Na+].[Zn+2] [Form II, A]
Response: 0.34

Query: Look up Mean mass increase: O=C([O-])CN(CCN(CC(=O)[O-])CC(=O)[O-])CCN(CC(=O)[O-])CC(=O)[O-].[Na+].[Na+].[Na+].[Zn+2] [Amorph I]
Response: 0.51
